# systemName: Alpha adrenergic receptor 1A and 1B (Rattus norvegicus, UniProt P15823+P43140)
# methodNotes: Binding affinity at Alpha-1 adrenergic receptor in rat brain homogenates by [3H]- prazosin displacement.
# Type: tissue-based

{"columns": ["compound", "qual", "Ki / µM"],
 "data": [
  ["CN(C(=O)CN1CCN(Cc2ccc(Cl)cc2)CC1)c1ccccc1", ">", 10],
  ["Cc1ccc(CN2CCN(C3C(=O)Nc4ccccc43)CC2)cc1 (stereo unspecified)", ">", 10],
  ["CCN1C(=O)C(CC)(N2CCN(Cc3ccc(C)cc3)CC2)c2ccccc21 (stereo unspecified)", ">", 10],
  ["Cc1ccc(CN2CCN(C3CCc4ccccc4N(C)C3=O)CC2)cc1 (stereo unspecified)", "=", 2.038],
  ["Cc1ccc(CN2CCN(C3(C)C(=O)N(C)c4ccccc43)CC2)cc1 (stereo unspecified)", ">", 10],
  ["CN1C(=O)C(N2CCN(Cc3ccc(Cl)cc3)CC2)CCc2ccccc21 (stereo unspecified)", "=", 2.878],
  ["CCN1C(=O)C(N2CCN(Cc3ccc(Cl)cc3)CC2)Cc2ccccc21 (stereo unspecified)", "=", 1.265],
  ["O=C1Nc2ccccc2CCC1N1CCN(Cc2ccc(Cl)cc2)CC1 (stereo unspecified)", "=", 9.591],
  ["O=C1Nc2ccccc2C1N1CCN(Cc2ccc(Cl)cc2)CC1 (stereo unspecified)", ">", 10],
  ["Cc1ccc(CN2CCN(C3CCc4ccccc4NC3=O)CC2)cc1 (stereo unspecified)", "=", 3.12],
  ["CCN1C(=O)C(N2CCN(Cc3ccc(C)cc3)CC2)CCc2ccccc21 (stereo unspecified)", "=", 0.815]
]}

* * *

Ki listing for selected molecules.
# systemName: Alpha adrenergic receptor 1A and 1B (Rattus norvegicus, UniProt P15823+P43140)
# Sequence (P15823 whole entry): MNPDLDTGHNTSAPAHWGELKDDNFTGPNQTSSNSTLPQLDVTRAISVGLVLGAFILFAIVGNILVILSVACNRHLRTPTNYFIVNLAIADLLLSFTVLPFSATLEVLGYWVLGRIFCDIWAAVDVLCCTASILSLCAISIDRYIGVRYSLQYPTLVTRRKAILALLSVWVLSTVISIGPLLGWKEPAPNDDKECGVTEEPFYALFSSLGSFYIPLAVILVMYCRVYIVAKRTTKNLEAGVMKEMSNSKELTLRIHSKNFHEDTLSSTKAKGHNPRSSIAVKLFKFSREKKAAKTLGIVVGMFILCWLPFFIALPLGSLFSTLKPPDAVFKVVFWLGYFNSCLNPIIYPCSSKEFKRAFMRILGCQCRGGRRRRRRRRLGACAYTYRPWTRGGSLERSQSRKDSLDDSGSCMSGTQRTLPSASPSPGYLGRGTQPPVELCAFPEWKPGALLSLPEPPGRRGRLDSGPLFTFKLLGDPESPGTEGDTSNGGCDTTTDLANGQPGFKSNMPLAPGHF
# Sequence (P43140 whole entry): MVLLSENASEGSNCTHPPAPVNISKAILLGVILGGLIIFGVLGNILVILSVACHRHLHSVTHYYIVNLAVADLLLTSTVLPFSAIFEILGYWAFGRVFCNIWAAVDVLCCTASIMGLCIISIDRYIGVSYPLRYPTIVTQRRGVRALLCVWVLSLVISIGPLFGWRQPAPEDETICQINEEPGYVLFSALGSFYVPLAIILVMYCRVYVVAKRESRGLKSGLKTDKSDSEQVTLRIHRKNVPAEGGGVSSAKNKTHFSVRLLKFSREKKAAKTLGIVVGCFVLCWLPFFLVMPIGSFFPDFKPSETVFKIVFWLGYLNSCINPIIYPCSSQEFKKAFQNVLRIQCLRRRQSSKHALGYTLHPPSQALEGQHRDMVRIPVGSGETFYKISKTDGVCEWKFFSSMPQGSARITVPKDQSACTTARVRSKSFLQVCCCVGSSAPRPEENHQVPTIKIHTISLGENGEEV
# methodNotes: Binding affinity at Alpha-1 adrenergic receptor in rat brain homogenates by [3H]- prazosin displacement.
# Type: tissue-based

{"columns": ["molecule", "systemName", "qual", "Ki, µM"],
 "data": [
  ["CN1C(=O)C(N2CCN(Cc3ccc(Cl)cc3)CC2)Cc2ccccc21 (stereo unspecified)", "Alpha adrenergic receptor 1A and 1B (Rattus norvegicus, UniProt P15823+P43140)", "=", 2.003],
  ["CN1C(=O)C(C)(N2CCN(Cc3ccc(Cl)cc3)CC2)c2ccccc21 (stereo unspecified)", "Alpha adrenergic receptor 1A and 1B (Rattus norvegicus, UniProt P15823+P43140)", ">", 10],
  ["CCN1C(=O)C(CC)(N2CCN(Cc3ccc(Cl)cc3)CC2)c2ccccc21 (stereo unspecified)", "Alpha adrenergic receptor 1A and 1B (Rattus norvegicus, UniProt P15823+P43140)", ">", 10],
  ["O=C1Nc2ccccc2CC1N1CCN(Cc2ccc(Cl)cc2)CC1 (stereo unspecified)", "Alpha adrenergic receptor 1A and 1B (Rattus norvegicus, UniProt P15823+P43140)", "=", 2.003],
  ["CCN1C(=O)C(N2CCN(Cc3ccc(Cl)cc3)CC2)CCc2ccccc21 (stereo unspecified)", "Alpha adrenergic receptor 1A and 1B (Rattus norvegicus, UniProt P15823+P43140)", "=", 2.678],
  ["Clc1ccc(N2CCN(C[C@H]3C[C@@H]3c3ccccc3)CC2)c(Cl)c1", "Alpha adrenergic receptor 1A and 1B (Rattus norvegicus, UniProt P15823+P43140)", "=", 0.322]
]}
